Test system: M14 melanoma
Assay: NCI tumour cell line growth inhibition, 48 h; in the data active = GI50 below about 0.43 µM; inactive = the rest
Use one of these outcomes when replying: active, inactive

The following compounds have reported results that may help.
Cc1cc(Nc2nc(SCc3ccc(C(=O)Nc4ccc(F)cc4N)cc3)nn3cccc23)n[nH]1 : active
CNC(=O)c1cc2c(Oc3ccc(NC(=O)C4(C(=O)Nc5ccc(F)cc5)CC4)cc3)ccnc2cc1OC : inactive
CCC(=C(c1ccc(OCCCN(C)C)cc1)c1ccc(OCCCN(C)C)cc1)c1ccc(Cl)cc1 : active
CCCCCCCCCCCC[n+]1ccccc1 (tested in a mixture with another compound) : inactive
O=C(O)CCC(NC(=S)S)C(=O)O.[Na+].[Zn+2] (stereo unspecified) : inactive
OB1OCc2cc(/C=C/c3cccc(C(F)(F)F)c3)ccc21 : inactive
CN(C)Cc1c[nH]c2c(NCCN)c3c(c(NCCN)c12)C(=O)c1ccccc1C3=O : inactive
C=C(CN1CCc2ccccc2C1)c1ccc(C(=O)Nc2ccccc2N)cc1 : inactive
COc1ccc(CC(C)C(C)Cc2ccc(OC)c(OC)c2)cc1OC (stereo unspecified) : inactive
Cc1ncc(C(=O)Nc2ccc(CN3CCN(C)CC3)c(C(F)(F)F)c2)cc1C#Cc1cnc(NC2CC2)c2ncccc12 : inactive

Okay, now this compound:
Prompt line: What did the test return for `c1ccc2nc3c(cc4ccccn43)nc2c1` ?
Response line: inactive

The measured values listed here are drawn from PubChem BioAssay (NCI).
